Value source: ChEMBL document CHEMBL1201862

tested on: SN12C; assay: NCI tumour cell line growth inhibition, 48 h
Activity calls are given as the source filed them. Cut-off read from the data, not from the text of the source: active = GI50 up to about 1.1 µM and inactive = higher.
Return exactly one item of YES (active), NO (inactive)

So what was the verdict on NC1=C(NC(=O)Cc2ccccc2F)C(=O)c2ccccc2C1=O in this test?
NO

So what was the verdict on CCCCCn1c(=O)c2c(=O)[nH][nH]c2c2ccccc21 in this test?
NO

So what was the verdict on COc1ccc(-c2nnc(CCCCCCCCc3nnc(-c4ccc(OC)cc4)n3N)n2N)cc1 in this test?
NO

So what was the verdict on CC(C)(C)C1CC[C@H]2c3c([nH]c4ccccc34)[C@H]3C(=O)N(c4ccc(F)cc4)C(=O)[C@H]3[C@H]2C1 (stereo not given in full) in this test?
NO

So what was the verdict on CCOC(=O)N1CC2(C(=O)OC)C=CC1C(C(=O)OC)C2 (stereo not given) in this test?
NO

So what was the verdict on COC(=O)C(CCC#N)(CCC#N)C(=O)OC in this test?
NO

So what was the verdict on Cc1c(C#N)c(N)n(C2OC(CO)C(O)C(O)C2O)c(=S)c1C#N (stereo not given) in this test?
NO

So what was the verdict on FC(F)(F)c1ccc(C2ON=C(c3ccccc3)N2C23CC4CC(CC(C4)C2)C3)cc1 (stereo not given) in this test?
NO

So what was the verdict on CCOC(=O)C1=C(C)N(Cc2ccccc2)C2(O)C(OC)CC(=O)C3C(=O)N(c4ccccc4)C(=O)C132 (stereo not given) in this test?
NO

So what was the verdict on COc1cc2c(cc1OC)[C@H]1C(=O)c3cc4c(cc3[C@H]1N(C)C2=O)OCO4 in this test?
NO

So what was the verdict on CCOC(=O)CCC(C(=O)OCC)n1nnc2cc(Nc3c(C)[n+]([O-])c4cc(F)c(OCC)cc4[n+]3[O-])ccc21 (stereo not given) in this test?
NO

So what was the verdict on O=c1cc(-c2ccccc2)oc2ccc(Cl)cc12 [6-CHLOROFLAVONE] in this test?
NO

So what was the verdict on O=[N+]([O-])c1ccc(C2=NN(c3ccccc3)C[N+](c3ccc(Br)cc3)=N2)cc1 in this test?
NO

So what was the verdict on COC1(OC)CCCc2c1no[n+]2[O-] in this test?
NO

So what was the verdict on CCc1ccc(NC(=O)NC(=O)c2ccccc2[N+](=O)[O-])cc1Oc1ncc(Cl)cn1 in this test?
YES

So what was the verdict on C=CC[C@]1(/C=N/O)CN(S(=O)(=O)CC[Si](C)(C)C)C[C@H]2CC=CC[C@H]21 in this test?
NO

So what was the verdict on CCCCc1ccc(Nc2nc(Cl)c3c(ncn3C3CC(Oc4ccc(C)cc4)C(COc4ccc(C)cc4)O3)n2)cc1 (stereo not given) in this test?
NO

So what was the verdict on C=CCc1cccc(/C=N\N/C(N)=N/O)c1O in this test?
NO

So what was the verdict on CCCCCCCCCCC(O)C1CCC(C2CCC(C(O)CCCCC(O)CCCCCC(O)CC3=CC(C)OC3=O)O2)O1 (stereo not given) in this test?
NO

So what was the verdict on COc1nc2cccc(C(O)c3ccccc3)c2nc1-c1ccccc1 (stereo not given) in this test?
NO

* * *

Could you please report measured GI50 for the items listed next?
test system: ACHN; assay: NCI tumour cell line growth inhibition, 48 h
The source made the active and inactive calls. Rule as the data show it: active = GI50 up to about 1.1 µM and inactive = higher.

Given the compound COc1cccc(N(CN2C(=O)CCC2C(=O)O)C(C)=O)c1 (configuration not stated) , what is its reported GI50?
> 100 µM (inactive)

Given the compound CCOC(=O)C(/N=N\c1ccc(S(N)(=O)=O)cc1)C(C)=O (configuration not stated) , what is its reported GI50?
> 100 µM (inactive)

Given the compound CO[C@H]1C[C@@H]2CC[C@@H](C)[C@@](O)(O2)C(=O)C(=O)N2CCCC[C@H]2C(=O)O[C@H]([C@H](C)C[C@@H]2CC[C@@H](OC(=O)C(C)(CO)CO)[C@H](OC)C2)CC(=O)[C@H](C)/C=C(\C)[C@@H](O)[C@@H](OC)C(=O)[C@H](C)C[C@H](C)/C=C/C=C/C=C/1C , what is its reported GI50?
0.00723 µM (active)

Given the compound COC1(C)CCC(OS(C)(=O)=O)CO1 (configuration not stated) , what is its reported GI50?
> 100 µM (inactive)

Given the compound CC(=O)OC1CC2(C)C(=CC1C1SCCS1)CCC1C2CCC2(C)C(OC(C)=O)CCC12 (configuration not stated) , what is its reported GI50?
> 100 µM (inactive)

Given the compound O=S(=O)(SCCCCSS(=O)(=O)c1ccc(Cl)cc1)c1ccc(Cl)cc1 , what is its reported GI50?
16.3 µM (inactive)

Given the compound c1cnn(CN(Cn2cccn2)Cn2cccn2)c1 , what is its reported GI50?
> 100 µM (inactive)

Given the compound Oc1ccc(/C=N/NC(=S)Nc2cccnc2)nc1 , what is its reported GI50?
4.76 µM (inactive)

Given the compound CCOC(=O)NC(C(=O)OCC)C(F)(F)F (configuration not stated) , what is its reported GI50?
> 100 µM (inactive)

Given the compound CC(c1ccccc1)n1cncc1C(=O)NN1CCN(C)CC1 (configuration not stated) , what is its reported GI50?
> 10 µM (inactive)

Given the compound Nc1c(-c2ccc(Cl)cc2Cl)[n+]([O-])c2ccccc2[n+]1[O-] , what is its reported GI50?
> 100 µM (inactive)

Given the compound Cc1cc(C)n2c(nc3ccccc32)c1C#N , what is its reported GI50?
> 100 µM (inactive)

Given the compound CCOC(=O)CCC(C(=O)OCC)n1nnc2cc(Nc3c(C)[n+]([O-])c4cc(F)c(OCC)cc4[n+]3[O-])ccc21 (configuration not stated) , what is its reported GI50?
52.6 µM (inactive)

Given the compound Nc1ccc(Oc2ccc(C34CC5CC6C3CC3CC4C(C5)C6(c4ccc(Oc5ccc(N)cc5)cc4)C3)cc2)cc1 , what is its reported GI50?
3.17 µM (inactive)

Given the compound CN(C)/C=N\c1nncc2[nH]nnc12 , what is its reported GI50?
> 100 µM (inactive)

Given the compound CNc1ncnc2c1cnn2CCCCO , what is its reported GI50?
> 100 µM (inactive)

Given the compound Cc1cc(C(C)(C)C)c(OCCCN2CCOCC2)c(C(C)(C)C)c1 , what is its reported GI50?
17.4 µM (inactive)

Given the compound COI1NC(=O)c2ccccc21 , what is its reported GI50?
> 100 µM (inactive)

Given the compound CCOC(=O)c1ccc(NC(=O)Oc2ccc3c(C)cc(=O)oc3c2)cc1 , what is its reported GI50?
41.4 µM (inactive)

Given the compound CC1(O)CC23CC1CCC2(C)C12CCCC(C)(C(=O)O1)C2CC3O (configuration not stated) , what is its reported GI50?
> 100 µM (inactive)

Given the compound COc1ccc(/C=C/C(=O)c2sc(-n3nc(-c4ccccc4)cc3-c3ccccc3)nc2C)cc1 , what is its reported GI50?
> 10 µM (inactive)

Given the compound COc1nc2cccc(C(O)c3ccccc3)c2nc1-c1ccccc1 (configuration not stated) , what is its reported GI50?
5.83 µM (inactive)

Given the compound N#Cc1nc(NC(=O)c2ccccc2)sc1N , what is its reported GI50?
> 10 µM (inactive)

Given the compound COc1cccc(Nc2nc(-c3cccs3)nc3cc(OC)c(OC)cc23)c1 , what is its reported GI50?
21.6 µM (inactive)

Given the compound O=C1Oc2ccccc2C(=O)/C1=C\Nc1nc(-c2ccc(O)c(O)c2)cs1 , what is its reported GI50?
2.88 µM (inactive)

Given the compound CC1CC/C(=C\c2ccc(Cl)cc2)C2OC(N)=C(C#N)C(c3ccc(Cl)cc3)=C12 (configuration not stated) , what is its reported GI50?
16.4 µM (inactive)

Given the compound COC(=O)C(CCC#N)(CCC#N)C(=O)OC , what is its reported GI50?
> 100 µM (inactive)

Given the compound CCn1c(CSc2nc(-c3ccccc3)c(-c3ccccc3)[nH]2)n[nH]c1=S , what is its reported GI50?
> 100 µM (inactive)

Given the compound COc1ccc2[nH]c3cc4c(=O)c5cc(OC)ccc5[nH]c4cc3c(=O)c2c1 , what is its reported GI50?
> 100 µM (inactive)

Given the compound CCN1CCC(O)(c2ccc(C)cc2)C(C(=O)c2ccc(C)cc2)C1 (configuration not stated) , what is its reported GI50?
17.5 µM (inactive)

Given the compound CC(C)N1CC2CN(Cc3ccccc3)CC(C1)C2=O , what is its reported GI50?
> 100 µM (inactive)

Given the compound Cc1ccc2c(c1)-c1c(C#N)c(N)nc(-c3ccccc3)c1CCS2(=O)=O , what is its reported GI50?
8.53 µM (inactive)

Given the compound CCOC(=O)Cn1c(=O)c2cc(C)cc3c(Cl)nc4c(OC)c(OC)cc1c4c32 , what is its reported GI50?
> 100 µM (inactive)

Given the compound COCc1cc2c(cc1/C=C/[N+](=O)[O-])OCO2 , what is its reported GI50?
17.1 µM (inactive)

Given the compound C=C1C2CCC3C4(C)CCCC(C)(C(=O)O)C4CCC3(C2)C1OC(=O)/C(C)=C/C (configuration not stated) , what is its reported GI50?
36.1 µM (inactive)

Given the compound O=C(N/N=C/c1ccccc1O)c1ccccc1Nc1ccccc1C(=O)N/N=C/c1ccccc1O , what is its reported GI50?
0.394 µM (active)

Given the compound CCc1ccc(NC(=O)NC(=O)c2ccccc2[N+](=O)[O-])cc1Oc1ncc(Cl)cn1 , what is its reported GI50?
0.0386 µM (active)

Given the compound O=C1OC(C2(O)OC(=O)c3ccccc32)c2ccccc21 (configuration not stated) , what is its reported GI50?
> 100 µM (inactive)

Given the compound CC1(C)O[C@@H]([C@@H](O)[C@H](O)C2SCCCS2)[C@@H](CO)O1 , what is its reported GI50?
> 100 µM (inactive)

Given the compound Nc1nc(Nc2ccccc2)c2[nH]cnc2n1 , what is its reported GI50?
41.9 µM (inactive)

Given the compound CN/C=C(/c1ccc(OC)cc1)C(O)c1ccc(OC)c(OC)c1 (configuration not stated) , what is its reported GI50?
> 100 µM (inactive)

Given the compound Cc1c(C#N)c(N)n(C2OC(CO)C(O)C(O)C2O)c(=S)c1C#N (configuration not stated) , what is its reported GI50?
> 100 µM (inactive)
